ASSAY_SUMMARY: n-octanol/water (PBS) partition coefficient (K par) of the chelators and their iron complexes
Assay type: physicochemical
CONDITIONS_USED: n-octanol/water (PBS); iron complex of the chelator; Table 4
ENDPOINT_LABEL: K par Iron Complex
Answers are plain numbers.

Below: 4 compounds and their reported K par Iron Complex.
Cc1c(O)c(=O)ccn1C [Example 1, 1,2-Dimethyl-3-hydroxypyrid-4-one]: 0.24
CCn1ccc(=O)c(O)c1C [Example 2, 1-Ethyl-3-hydroxy-2-methylpyrid-4-one]: 0.52
CCCn1ccc(=O)c(O)c1CC [Example 6, 2-ethyl-3-hydroxy-1-propylpyrid-4-one]: 9.68
CCc1c(O)c(=O)ccn1C [Example 4, 2-Ethyl-3-hydroxy-1-methylpyrid-4-one]: 0.02

Next:
Input line: Report measured K par Iron Complex; entry is CCc1c(O)c(=O)ccn1CC [Example 5, 1,2-diethyl-3-hydroxypyrid-4-one]
Output line: 0.28

* * *

ASSAY_SUMMARY: n-octanol/water (PBS) partition coefficient (K par) of the chelators and their iron complexes
Assay type: physicochemical
CONDITIONS_USED: n-octanol/water (PBS); free chelator; Table 4
Procedure: The n-octanol/water (PBS) partition coefficients (K par) of the chelators and their iron complexes were determined using a previously determined method. The partition coefficients of the chelators and their iron complexes were determined using a mixture of n-octanol and phosphate buffer saline at pH 7.3 as previously described. […]
ENDPOINT_LABEL: K par Chelator

CCc1c(O)c(=O)ccn1C [Example 4, 2-Ethyl-3-hydroxy-1-methylpyrid-4-one]: 0.4
CCCn1ccc(=O)c(O)c1CC [Example 6, 2-ethyl-3-hydroxy-1-propylpyrid-4-one]: 4.2
Cc1c(O)c(=O)ccn1C [Example 1, 1,2-Dimethyl-3-hydroxypyrid-4-one]: 0.19
CCn1ccc(=O)c(O)c1C [Example 2, 1-Ethyl-3-hydroxy-2-methylpyrid-4-one]: 0.37

Now let's try a different one.
Input line: Provide only the value of recorded K par Chelator for CCc1c(O)c(=O)ccn1CC [Example 5, 1,2-diethyl-3-hydroxypyrid-4-one]
Output line: 1.4

* * *

I'd appreciate it if you could supply pKa values for the items below.
ASSAY_SUMMARY: pKa determination of the chelators
Type: physicochemical
CONDITIONS_USED: read-out: PKa(1)
Numbers only.

Some solved entries appear below for comparison.
CCCn1ccc(=O)c(O)c1C [Example 3, 3-Hydroxy-2-methyl-1-propylpyrid-4-one]: 3.7
CCn1ccc(=O)c(O)c1C [Example 2, 1-Ethyl-3-hydroxy-2-methylpyrid-4-one]: 3.6
CCCn1ccc(=O)c(O)c1CC [Example 6, 2-ethyl-3-hydroxy-1-propylpyrid-4-one]: 3.4

Batch of 2 compounds: report pKa for each.
1. Cc1c(O)c(=O)ccn1C [Example 1, 1,2-Dimethyl-3-hydroxypyrid-4-one]
2. CCc1c(O)c(=O)ccn1CC [Example 5, 1,2-diethyl-3-hydroxypyrid-4-one]

Output line:
[3.3, 3.7]

Input line: Retrieve pKa measured for CCc1c(O)c(=O)ccn1C [Example 4, 2-Ethyl-3-hydroxy-1-methylpyrid-4-one] and print it.
Output line: 3.7

* * *

Kindly supply the reported Percentage Iron Removal Transferrin ⁵⁹Fe 1h values for the records listed here.
SYSTEM_UNDER_TEST: human transferrin (Homo sapiens, UniProt P02787)
Construct: purchased Sigma
Sequence (P02787 20-698): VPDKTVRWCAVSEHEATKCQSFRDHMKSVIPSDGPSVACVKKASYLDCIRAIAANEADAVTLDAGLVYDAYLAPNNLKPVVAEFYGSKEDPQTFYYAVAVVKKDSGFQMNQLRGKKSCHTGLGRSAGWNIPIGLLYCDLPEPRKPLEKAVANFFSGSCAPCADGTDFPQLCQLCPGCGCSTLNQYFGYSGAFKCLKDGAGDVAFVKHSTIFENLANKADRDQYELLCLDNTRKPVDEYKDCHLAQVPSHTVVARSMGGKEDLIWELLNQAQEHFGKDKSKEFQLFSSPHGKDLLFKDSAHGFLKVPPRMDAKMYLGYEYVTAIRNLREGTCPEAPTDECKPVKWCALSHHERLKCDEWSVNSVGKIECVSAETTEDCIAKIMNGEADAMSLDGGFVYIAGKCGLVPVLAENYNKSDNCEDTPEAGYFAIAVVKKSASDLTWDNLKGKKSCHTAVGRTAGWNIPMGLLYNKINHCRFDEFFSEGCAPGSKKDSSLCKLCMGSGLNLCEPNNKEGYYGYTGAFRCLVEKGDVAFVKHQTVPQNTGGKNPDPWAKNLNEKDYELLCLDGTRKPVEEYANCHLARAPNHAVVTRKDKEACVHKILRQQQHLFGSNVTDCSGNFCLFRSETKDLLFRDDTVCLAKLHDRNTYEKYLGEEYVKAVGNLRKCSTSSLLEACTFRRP
ASSAY_SUMMARY: Iron mobilisation from 59Fe transferrin by dialysis against chelator solution
Type: biochemical
CONDITIONS_USED: chelator 4x10⁻³M, 37°C, pH 7.3, 2 x PBS, 1h
Answers are plain numbers.

CCc1c(O)c(=O)ccn1CC [Example 5, 1,2-diethyl-3-hydroxypyrid-4-one]: 24.9
CCc1c(O)c(=O)ccn1C [Example 4, 2-Ethyl-3-hydroxy-1-methylpyrid-4-one]: 36.0
Cc1c(O)c(=O)ccn1C [Example 1, 1,2-Dimethyl-3-hydroxypyrid-4-one]: 37.3

Input line: Please respond with reported Percentage Iron Removal Transferrin ⁵⁹Fe 1h (system human transferrin (Homo sapiens, UniProt P02787)) for CCCn1ccc(=O)c(O)c1CC [Example 6, 2-ethyl-3-hydroxy-1-propylpyrid-4-one] .
Output line: 23.2

* * *

ASSAY_SUMMARY: pKa determination of the chelators
Type: physicochemical
CONDITIONS_USED: pKa of the hydroxyl group; read-out: Pka(2)
ENDPOINT_LABEL: pKa
Answers are plain numbers.

Before answering, review these 5 worked examples.
CCCn1ccc(=O)c(O)c1CC [Example 6, 2-ethyl-3-hydroxy-1-propylpyrid-4-one]: 10.1
CCCn1ccc(=O)c(O)c1C [Example 3, 3-Hydroxy-2-methyl-1-propylpyrid-4-one]: 10.2
Cc1c(O)c(=O)ccn1C [Example 1, 1,2-Dimethyl-3-hydroxypyrid-4-one]: 9.7
CCc1c(O)c(=O)ccn1C [Example 4, 2-Ethyl-3-hydroxy-1-methylpyrid-4-one]: 9.8
CCc1c(O)c(=O)ccn1CC [Example 5, 1,2-diethyl-3-hydroxypyrid-4-one]: 10.1

Turning to the following compound.
Input line: Provide one value: measured pKa of CCn1ccc(=O)c(O)c1C [Example 2, 1-Ethyl-3-hydroxy-2-methylpyrid-4-one]
Output line: 10.3

* * *

SYSTEM_UNDER_TEST: human transferrin (Homo sapiens)
Construct: purchased Sigma
ASSAY_SUMMARY: Iron mobilisation from 59Fe transferrin by dialysis against chelator solution
Format: biochemical
CONDITIONS_USED: chelator 4x10⁻³M, 37°C, pH 7.3, 2 x PBS, 2h
ENDPOINT_LABEL: Percentage Iron Removal Transferrin ⁵⁹Fe 2h
One number for each entry.

# count of solved cases: 3
Cc1c(O)c(=O)ccn1C [Example 1, 1,2-Dimethyl-3-hydroxypyrid-4-one]: 69.9
CCCn1ccc(=O)c(O)c1CC [Example 6, 2-ethyl-3-hydroxy-1-propylpyrid-4-one]: 50.3
CCc1c(O)c(=O)ccn1C [Example 4, 2-Ethyl-3-hydroxy-1-methylpyrid-4-one]: 56.6

Now look at this one.
Input line: Determine its reported Percentage Iron Removal Transferrin ⁵⁹Fe 2h: CCc1c(O)c(=O)ccn1CC [Example 5, 1,2-diethyl-3-hydroxypyrid-4-one]
Output line: 51.8

Reference for the values: patent EP0335745A1
